# test_target: SARS-CoV-2 3CLpro (Severe acute respiratory syndrome coronavirus 2)
# measurement_description: biochemical
# Type: biochemical
# condition_details: LOPAC1280 primary screen with protease, 5 µM compound, replicate 1

- compound: "CCCN(CCC)[C@@H]1CCc2c(F)ccc(O)c2C1.Cl [R(+)-UH-301 hydrochloride]"
  Replicate_1 (LOPAC_screen_w_protease): 1.567
- compound: "O=C1Nc2ccccc2/C1=C1/Nc2ccccc2/C1=N\\O"
  Replicate_1 (LOPAC_screen_w_protease): 2.012
- compound: "O=C[C@H](Cl)[C@@H](O)[C@H](O)[C@H](O)CO"
  Replicate_1 (LOPAC_screen_w_protease): 1.144
- compound: "CCCCOC(=O)NS(=O)(=O)c1sc(CC(C)C)cc1-c1ccc(Cn2c(CC)nc3c(C)cc(C)nc32)cc1"
  Replicate_1 (LOPAC_screen_w_protease): 2.383
- compound: "Cl.NC(N)=NCCNS(=O)(=O)c1cccc2cnccc12 [HA-1004 hydrochloride]"
  Replicate_1 (LOPAC_screen_w_protease): 0.9796
- compound: "CC(=O)NCCc1c[nH]c2ccc(O)cc12 [N-Acetyl-5-hydroxytryptamine]"
  Replicate_1 (LOPAC_screen_w_protease): 1.947
- compound: "O=[N+]([O-])c1cccc2c(Br)n[nH]c12"
  Replicate_1 (LOPAC_screen_w_protease): 2.045
- compound: "CCCn1c(C)c(C(=O)c2cccc3ccccc23)c2ccccc21"
  Replicate_1 (LOPAC_screen_w_protease): 1.748
- compound: "Cl.NC1C=CC=C(C(=O)O)C1 (stereo not drawn) [Gabaculine hydrochloride]"
  Replicate_1 (LOPAC_screen_w_protease): 1.548

###

# test_target: SARS-CoV-2 3CLpro (Severe acute respiratory syndrome coronavirus 2, UniProt P0DTD1)
# measurement_description: biochemical
# Type: biochemical
# Parameters: unit not given here
# condition_details: sheet LOPAC_screen_w_protease; LOPAC1280 primary screen at 5 µM, with protease; replicate 2
property_label: Replicate_2

- compound: "O=S(=O)(c1cccc2cnccc12)N1CCNCC1"
  recorded_measurement: -0.01568
- compound: "Cl.NCC#Cc1ccccc1 [3-Phenylpropargylamine hydrochloride]"
  recorded_measurement: 0.1753
- compound: "CC(=O)[C@H]1CC[C@H]2[C@@H]3CC[C@H]4C[C@H](O)CC[C@]4(C)[C@H]3CC[C@]12C"
  recorded_measurement: 0.1995
- compound: "NCC(O)(CS(=O)(=O)O)c1ccc(Cl)cc1 (stereo not shown) [2-Hydroxysaclofen]"
  recorded_measurement: -0.8627
- compound: "COC(=O)C(N)Cc1ccc(Cl)cc1.Cl (racemic)"
  recorded_measurement: -1.1263
- compound: "O=C(O)/C=C\\C(=O)O.O=[N+]([O-])c1ccc2nc(N3CCNCC3)ccc2c1 [Quipazine, 6-nitro-, maleate]"
  recorded_measurement: -0.03606
- compound: "N[C@@H](Cn1ccc(=O)[nH]c1=O)C(=O)O [S(-)-Willardiine]"
  recorded_measurement: 0.89

###

# test_target: SARS-CoV-2 3CLpro (Severe acute respiratory syndrome coronavirus 2)
# measurement_description: biochemical
# Assay type: biochemical
# Design: unit not given here
# condition_details: sheet LOPAC_screen_w_protease; primary screen with protease, compound at 5 µM; mean of two replicates

- compound: "NNC(=O)c1ccc(O)cc1 [4-Hydroxybenzhydrazide]"
  test_target: "SARS-CoV-2 3CLpro (Severe acute respiratory syndrome coronavirus 2)"
  mean: 2.583
- compound: "N#CC(=Cc1ccc(O)c(O)c1)C(=O)NCCc1ccccc1"
  test_target: "SARS-CoV-2 3CLpro (Severe acute respiratory syndrome coronavirus 2)"
  mean: 2.9723
- compound: "OC[C@H]1O[C@@H](n2cnc3c(N[C@H]4CC5CCC4C5)ncnc32)[C@H](O)[C@@H]1O (stereo partly drawn) [(S)-ENBA]"
  test_target: "SARS-CoV-2 3CLpro (Severe acute respiratory syndrome coronavirus 2)"
  mean: 2.65
- compound: "CC(C)(C)c1onc(OCP(=O)(O)O)c1CC(N)C(=O)O (centres unmarked)"
  test_target: "SARS-CoV-2 3CLpro (Severe acute respiratory syndrome coronavirus 2)"
  mean: 3.0772
- compound: "CC(=N)NCCC[C@H](N)C(=O)O.Cl"
  test_target: "SARS-CoV-2 3CLpro (Severe acute respiratory syndrome coronavirus 2)"
  mean: 2.835
- compound: "[N-]=[N+]=Nc1ccc(C(=O)CSC[C@H](NC(=O)CC[C@H](N)C(=O)O)C(=O)NCC(=O)O)cc1"
  test_target: "SARS-CoV-2 3CLpro (Severe acute respiratory syndrome coronavirus 2)"
  mean: 2.647
- compound: "CC[C@H](C)[C@H]1O[C@]2(CC[C@@H]1C)C[C@@H]1C[C@@H](C/C=C(\\C)[C@@H](O[C@H]3C[C@H](OC)[C@@H](O[C@H]4C[C@H](OC)[C@@H](O)[C@H](C)O4)[C@H](C)O3)[C@@H](C)/C=C/C=C3\\CO[C@@H]4[C@H](O)C(C)=C[C@@H](C(=O)O1)[C@]34O)O2"
  test_target: "SARS-CoV-2 3CLpro (Severe acute respiratory syndrome coronavirus 2)"
  mean: 2.889
- compound: "CCN1CCc2nc(N)oc2CC1.Cl.Cl [B-HT 933 dihydrochloride]"
  test_target: "SARS-CoV-2 3CLpro (Severe acute respiratory syndrome coronavirus 2)"
  mean: 2.82
- compound: "CCN(CC)c1ncnc2c1ncn2[C@@H]1O[C@H](COP(=O)([O-])OP(=O)([O-])C(Br)(Br)P(=O)([O-])O)[C@@H](O)[C@H]1O.[Na+].[Na+].[Na+] [ARL 67156 trisodium salt]"
  test_target: "SARS-CoV-2 3CLpro (Severe acute respiratory syndrome coronavirus 2)"
  mean: 2.893
- compound: "COc1ccccc1N1CCN(CCN2C(=O)CC3(CCCC3)CC2=O)CC1.Cl.Cl [BMY 7378 dihydrochloride]"
  test_target: "SARS-CoV-2 3CLpro (Severe acute respiratory syndrome coronavirus 2)"
  mean: 2.822
- compound: "Nc1nc2c(nc(Br)n2[C@@H]2O[C@@H]3COP(=O)([O-])O[C@H]3[C@H]2O)c(=O)[nH]1.[Na+] [8-Bromo-cGMP sodium]"
  test_target: "SARS-CoV-2 3CLpro (Severe acute respiratory syndrome coronavirus 2)"
  mean: 2.652
- compound: "CCCCCCCCCCCCCCCC(=O)OC(CC(=O)O)C[N+](C)(C)C.[Cl-] (racemic) [Palmitoyl-DL-Carnitine chloride]"
  test_target: "SARS-CoV-2 3CLpro (Severe acute respiratory syndrome coronavirus 2)"
  mean: 2.684
- compound: "Cl.Fc1ccc(C(OCCCc2c[nH]cn2)c2ccc(F)cc2)cc1"
  test_target: "SARS-CoV-2 3CLpro (Severe acute respiratory syndrome coronavirus 2)"
  mean: 2.8
- compound: "CCN(CC)CCOC(=O)c1cc(Cl)c(N)cc1OC.Cl [SDZ-205,557 hydrochloride]"
  test_target: "SARS-CoV-2 3CLpro (Severe acute respiratory syndrome coronavirus 2)"
  mean: 2.714
- compound: "Cl.NCC(O)c1cc(O)c(O)cc1F (centres unmarked) [6-Fluoronorepinephrine hydrochloride]"
  test_target: "SARS-CoV-2 3CLpro (Severe acute respiratory syndrome coronavirus 2)"
  mean: 2.749
- compound: "O=c1onc2cnc3ccccc3n12"
  test_target: "SARS-CoV-2 3CLpro (Severe acute respiratory syndrome coronavirus 2)"
  mean: 2.809
- compound: "C[C@H](O)[C@H](O)[C@H]1CNc2nc(N)[nH]c(=O)c2N1.Cl"
  test_target: "SARS-CoV-2 3CLpro (Severe acute respiratory syndrome coronavirus 2)"
  mean: 3.136

Reference source: paper PMC7587356
